- testSystem: human GLP-1R (Homo sapiens, UniProt P43220)
- Construct: expressed in transfected cells; host or cells: PEAK RAPID-derived Gα15-trans48 LD stably expressing cells (PRG48), transiently transfected with Lipofectamine 2000
- Sequence (P43220 24-463): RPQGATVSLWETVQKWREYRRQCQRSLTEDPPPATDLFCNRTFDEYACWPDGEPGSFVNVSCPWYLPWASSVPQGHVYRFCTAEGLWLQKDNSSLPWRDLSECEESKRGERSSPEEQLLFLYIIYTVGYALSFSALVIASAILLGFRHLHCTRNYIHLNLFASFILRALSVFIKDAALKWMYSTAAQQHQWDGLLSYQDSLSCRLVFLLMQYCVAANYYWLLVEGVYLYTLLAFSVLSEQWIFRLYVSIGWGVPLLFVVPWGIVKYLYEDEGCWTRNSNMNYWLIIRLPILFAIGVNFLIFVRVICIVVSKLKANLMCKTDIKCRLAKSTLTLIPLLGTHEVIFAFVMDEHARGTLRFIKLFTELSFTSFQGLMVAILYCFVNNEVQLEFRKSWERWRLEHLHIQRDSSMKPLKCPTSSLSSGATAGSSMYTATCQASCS
- testDescription: GLP-1 receptor in vitro calcium assay (intracellular free calcium concentration change induced via GLP-1 receptor)
- Format: cell-based
- measurementConditions: intensity compared to BETP, activity of BETP as 1
compounds and their reported GLP-1 receptor action enhancing activity (vs BETP)
# print the numeric value only

compound	reading
CCCCC(CC)CNC(=O)[C@@H](CC(C)C)NC(=O)Nc1ccc(NS(=O)(=O)c2ccc(C)cc2)cc1 (some centres unmarked)	140
CCCCCCNC(=O)[C@@H](Cc1ccc(F)cc1)NC(=O)Nc1ccc(NS(=O)(=O)c2ccc(C)cc2)cc1	48
Cc1ccc(S(=O)(=O)Nc2ccc(N(C)C(=O)N[C@H](Cc3ccccc3)C(=O)OC(C)(C)C)cc2)cc1	58
Cc1ccc(S(=O)(=O)Nc2ccc(NC(=O)N[C@H](Cc3ccccc3)C(=O)N[C@@H](C)c3ccccc3)cc2)cc1	52
CC(C)CCCC(C)NC(=O)[C@H](CC1CCCCC1)NC(=O)Nc1ccc(NS(=O)(=O)c2ccc(C(C)(C)C)cc2)cc1 (some centres unmarked)	6569
Cc1ccc(S(=O)(=O)Nc2ccc(NC(=O)N[C@H](Cc3ccccc3)C(=O)NCc3cccs3)cc2)cc1	47
CC(C)(C)OC(=O)[C@H](Cc1ccccc1)NC(=O)Nc1ccc(NS(=O)(=O)c2ccc(C(C)(C)C)cc2)cc1	83
Cc1ccc(S(=O)(=O)Nc2cccc(NC(=O)N[C@@H](Cc3ccccc3)C(=O)OC(C)(C)C)c2)cc1	17

Data request, read-out GLP-1 receptor action enhancing activity (vs BETP), for "Cc1ccc(S(=O)(=O)Nc2ccc(NC(=O)N[C@H](Cc3ccccc3)C(=O)NCCc3ccccc3)cc2)cc1"
15

Another compound to check: "COc1ccc(CNC(=O)[C@@H](Cc2ccccc2)NC(=O)Nc2ccc(NS(=O)(=O)c3ccc(C)cc3)cc2)cc1"
18

Another compound to check: CC(C)CCCC(C)NC(=O)[C@@H](Cc1c[nH]c2ccccc12)NC(=O)Nc1cccc(NS(=O)(=O)c2ccc(C(C)(C)C)cc2)c1 (some centres unmarked)
140

Another compound to check: "Cc1ccc(S(=O)(=O)Nc2ccc(NC(=O)N[C@H](CC(C)C)C(=O)N[C@H](Cc3ccccc3)c3nc(C(C)(C)C)no3)cc2)cc1"
98

Another compound to check: CC(C)CCCC(C)NC(=O)[C@@H](Cc1cccnc1)NC(=O)Nc1ccc(NS(=O)(=O)c2ccc(C(C)(C)C)cc2)cc1 (some centres unmarked)
193

Another compound to check: "CCCCCCNC(=O)[C@@H](CCCC)NC(=O)Nc1ccc(NS(=O)(=O)c2ccc(C)cc2)cc1"
49

Another compound to check: "CCCOc1ccc(-c2noc([C@H](Cc3ccccc3)NC(=O)Nc3ccc(NS(=O)(=O)c4ccc(C)cc4)cc3)n2)cc1"
1068

Another compound to check: "CCCCCCNC(=O)[C@@H](CC1CCCCC1)NC(=O)Nc1cccc(NS(=O)(=O)c2ccc(C(C)(C)C)cc2)c1"
555

Another compound to check: "Cc1ccc(S(=O)(=O)Nc2ccc(NC(=O)N[C@H](Cc3ccccc3)C(=O)NC3CCCCCCC3)cc2)cc1"
144

Another compound to check: "Cc1ccc(S(=O)(=O)Nc2ccc(NC(=O)N[C@@H](Cc3c[nH]c4ccccc34)C(=O)OC(C)(C)C)cc2)cc1"
38

Another compound to check: "Cc1ccc(S(=O)(=O)Nc2ccc(NC(=O)N[C@H](Cc3ccccc3)C(=O)OC(C)(C)C)cc2F)cc1"
23

Another compound to check: CCCCCC(C)NC(=O)[C@@H](Cc1ccccc1)NC(=O)Nc1ccc(NS(=O)(=O)c2ccc(C)cc2)cc1 (some centres unmarked)
137

Another compound to check: "Cc1ccc(S(=O)(=O)Nc2ccc(NC(=O)N[C@H](Cc3ccccc3)C(=O)NCC(C)(C)C)cc2)cc1"
13

Another compound to check: "CCCCCCCCNC(=O)[C@@H](Cc1ccccc1)NC(=O)Nc1ccc(NS(=O)(=O)c2ccc(C)cc2)cc1"
490

Another compound to check: CCCCC(CC)CNC(=O)[C@H](Cc1c[nH]c2ccccc12)NC(=O)Nc1ccc(NS(=O)(=O)c2ccc(C(C)(C)C)cc2)cc1 (some centres unmarked)
2534

Another compound to check: "CC(C)(C)OC(=O)[C@H](Cc1ccccc1)NC(=O)Nc1ccc(NS(=O)(=O)Cc2ccccc2)cc1"
14

Another compound to check: "CCC(CC)CNC(=O)[C@@H](Cc1ccccc1)NC(=O)Nc1ccc(NS(=O)(=O)c2ccc(C)cc2)cc1"
67

Another compound to check: "Cc1ccc(S(=O)(=O)Nc2ccc(NC(=O)N[C@H](Cc3ccccc3)C(=O)NCc3ccc(F)cc3)cc2)cc1"
24

Another compound to check: "CCCCCCNC(=O)[C@@H](Cc1c[nH]c2ccccc12)NC(=O)Nc1ccc(NS(=O)(=O)c2ccc(C)cc2)cc1"
53

Another compound to check: "CCCCCCNC(=O)[C@@H](CCSC)NC(=O)Nc1ccc(NS(=O)(=O)c2ccc(C)cc2)cc1"
17

Another compound to check: "Cc1ccccc1S(=O)(=O)Nc1ccc(NC(=O)N[C@@H](Cc2ccccc2)C(=O)OC(C)(C)C)cc1"
15
